Each item that follows carries a reported pKd.
Molecular target: GDP-bound KRAS wild-type protein (Homo sapiens, UniProt P01116)
Sequence (P01116 whole entry): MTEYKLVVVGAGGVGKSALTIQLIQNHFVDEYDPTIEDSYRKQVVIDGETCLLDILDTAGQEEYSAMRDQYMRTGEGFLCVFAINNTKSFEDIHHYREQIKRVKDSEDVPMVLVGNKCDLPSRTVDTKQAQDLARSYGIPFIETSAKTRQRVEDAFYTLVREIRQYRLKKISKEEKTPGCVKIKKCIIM
Assay: Binding to KRAS by surface plasmon resonance (SPR), Single Cycle Kinetics
Conditions: SPR Single Cycle Kinetics, GDP-bound KRAS wild-type protein, 1:1 binding model; read-out: KRAS KD
*1 amine or outer side, *2 acyl side, *3 side chain or, on linkers, in order; H or OH if unused. Where a SMILES comes first, the peptide text is derived from it. Bridges are numbered along the chain shown (N, C = ends). [ ]: non-standard residue; d: D form. The star is where a group is joined. hPhe(3,5-F2-4-CF3) = N[C@@H](CCc1cc(F)c(C(F)(F)F)c(F)c1)C(=O)O; hPhe(3-Cl-4-CF3) = N[C@@H](CCc1ccc(C(F)(F)F)c(Cl)c1)C(=O)O; X5 = C=CCN([C@@H](Cc1ccc(C(F)(F)F)cc1)C(=O)[*:2])[*:1]; NPrPhe(4-CF3) = CCCN[C@@H](Cc1ccc(C(F)(F)F)cc1)C(=O)O; NMeGly(cPent) = CN[C@H](C(=O)O)C1CCCC1; Pro(4,4-F2) = O=C(O)[C@@H]1CC(F)(F)CN1; Pro(4S-Me) = C[C@@H]1CN[C@H](C(=O)O)C1; αMeCha = C[C@](N)(CC1CCCCC1)C(=O)O; NMeD = CN[C@@H](CC(=O)O)C(=O)O; NMeL = CN[C@@H](CC(C)C)C(=O)O; NMeAbu = CC[C@H](NC)C(=O)O; Morpholide = C1CN(*)CCO1; NMeA = CN[C@@H](C)C(=O)O; Ac5c = NC1(C(=O)O)CCCC1; Aze = O=C(O)[C@@H]1CCN1; Sar = CNCC(=O)O
Give only the number. pKd is defined as minus log10 of concentration in molar units.

Guide cases for pKd, answers given:
Molecule | Tested target | pKd
CCOC[C@H]1C(=O)N[C@@H]([C@@H](C)CC)C(=O)N(C)CC(=O)N(C)[C@H]2C/C=C\CCN(C2=O)[C@@H](Cc2ccc(C(F)(F)F)cc2)C(=O)N(C)CC(=O)N[C@@H](CCc2cc(F)c(C(F)(F)F)c(F)c2)C(=O)N2C[C@H](OCC)C[C@H]2C(=O)NC2(CC(C)(C)C2)C(=O)N(C)[C@@H](CC2CCC2)C(=O)N(C)[C@H](C(=O)N(C)C)CC(=O)N1C [PP2763] | GDP-bound KRAS wild-type protein (Homo sapiens, UniProt P01116) | 9.07
C=CCN1C(=O)[C@@H]2CCN2C(=O)[C@H](C)N(C)C(=O)[C@H]([C@@H](C)CC)NC(=O)[C@H](CC(C)C)N(C)C(=O)C[C@@H](C(=O)N2CCOCC2)N(C)C(=O)[C@H](C2CCCC2)N(C)C(=O)C2(CCCC2)NC(=O)[C@@H]2CCCN2C(=O)[C@H](CCc2ccc(C(F)(F)F)c(Cl)c2)NC(=O)CN(C)C(=O)[C@@H]1Cc1ccc(C(F)(F)F)cc1 [PP0114] ([NMeL]I[NMeA][Aze][X5][Sar][hPhe(3-Cl-4-CF3)]P[Ac5c][NMeGly(cPent)][NMeD]-Morpholide; lactam N-11) | GDP-bound KRAS wild-type protein (Homo sapiens, UniProt P01116) | 9.80
CCCN1C(=O)CN(C)C(=O)CN(C)C(=O)[C@H]([C@@H](C)CC)NC(=O)[C@H](CC(C)C)N(C)C(=O)C[C@@H](C(=O)N(C)C)N(C)C(=O)[C@H](C2CCCC2)N(C)C(=O)[C@](C)(CC2CCCCC2)NC(=O)[C@@H]2CCCN2C(=O)[C@H](CCc2cc(F)c(C(F)(F)F)c(F)c2)NC(=O)CN(C)C(=O)[C@@H]1Cc1ccc(C(F)(F)F)cc1 [PP0739] ([NMeL]I[Sar][Sar][NPrPhe(4-CF3)][Sar][hPhe(3,5-F2-4-CF3)]P[αMeCha][NMeGly(cPent)][NMeD]-NMe2; lactam N-11) | GDP-bound KRAS wild-type protein (Homo sapiens, UniProt P01116) | 8.43
CCCN1C(=O)CN(C)C(=O)CN(C)C(=O)[C@H]([C@@H](C)CC)NC(=O)[C@H](CC)N(C)C(=O)C[C@@H](C(=O)N2CCOCC2)N(C)C(=O)[C@H](C2CCCC2)N(C)C(=O)C2(CCCC2)NC(=O)[C@@H]2CC(F)(F)CN2C(=O)[C@H](CCc2ccc(C(F)(F)F)c(Cl)c2)NC(=O)CN(C)C(=O)[C@@H]1Cc1ccc(C(F)(F)F)cc1 [PP0202] ([NMeAbu]I[Sar][Sar][NPrPhe(4-CF3)][Sar][hPhe(3-Cl-4-CF3)][Pro(4,4-F2)][Ac5c][NMeGly(cPent)][NMeD]-Morpholide; lactam N-11) | GDP-bound KRAS wild-type protein (Homo sapiens, UniProt P01116) | 10.12

// moving on: another record for pKd
What value of pKd on GDP-bound KRAS wild-type protein (Homo sapiens, UniProt P01116) does CCCN1C(=O)CN(C)C(=O)CN(C)C(=O)[C@H]([C@@H](C)CC)NC(=O)[C@H](CC(C)C)N(C)C(=O)C[C@@H](C(=O)N2CCOCC2)N(C)C(=O)[C@H](C2CCCC2)N(C)C(=O)C2(CCCC2)NC(=O)[C@@H]2C[C@H](C)CN2C(=O)[C@H](CCc2ccc(C(F)(F)F)c(Cl)c2)NC(=O)CN(C)C(=O)[C@@H]1Cc1ccc(C(F)(F)F)cc1 [PP0447] ([NMeL]I[Sar][Sar][NPrPhe(4-CF3)][Sar][hPhe(3-Cl-4-CF3)][Pro(4S-Me)][Ac5c][NMeGly(cPent)][NMeD]-Morpholide; lactam N-11) have? 9.74

====

Each item that follows carries a reported pKd.
Molecular target: GDP-bound KRAS wild-type protein (Homo sapiens)
Assay: Binding to KRAS by surface plasmon resonance (SPR), Single Cycle Kinetics
Details: SPR Single Cycle Kinetics, GDP-bound KRAS wild-type protein, 1:1 binding model; read-out: KRAS KD
*1 amine or outer side, *2 acyl side, *3 side chain or, on linkers, in order; H or OH if unused. Where a SMILES comes first, the peptide text is derived from it. Bridges are numbered along the chain shown (N, C = ends). [ ]: non-standard residue; d: D form. The star is where a group is joined. hPhe(3-Cl-4-CF3) = N[C@@H](CCc1ccc(C(F)(F)F)c(Cl)c1)C(=O)O; X28 = COCCCN([C@@H](Cc1ccc(C)cc1)C(=O)[*:2])[*:1]; NMeGly(cPent) = CN[C@H](C(=O)O)C1CCCC1; NMeD = CN[C@@H](CC(=O)O)C(=O)O; NMeL = CN[C@@H](CC(C)C)C(=O)O; Morpholide = C1CN(*)CCO1; NMeA = CN[C@@H](C)C(=O)O; Ac5c = NC1(C(=O)O)CCCC1; Aze = O=C(O)[C@@H]1CCN1; Sar = CNCC(=O)O
Give only the number. pKd is defined as minus log10 of concentration in molar units.

Compound | pKd
CCC[C@H]1C(=O)N[C@@H]([C@@H](C)CC)C(=O)N(C)CC(=O)N(C)[C@H]2C/C=C\CCN(C2=O)[C@@H](Cc2ccc(C(F)F)cc2)C(=O)N(C)CC(=O)N[C@@H](CCc2ccc(Cl)c(Cl)c2)C(=O)N2C[C@H](OCC)C[C@H]2C(=O)NC2(CC(C)(C)C2)C(=O)N(C)[C@@H](C(CC)CC)C(=O)N(C)[C@H](C(=O)N(C)C)CC(=O)N1C | 9.29

// moving on: another record for pKd
Which pKd value belongs to CC[C@H](C)[C@@H]1NC(=O)[C@H](CC(C)C)N(C)C(=O)C[C@@H](C(=O)N2CCOCC2)N(C)C(=O)[C@H](C2CCCC2)N(C)C(=O)C2(CCCC2)NC(=O)[C@@H]2CCCN2C(=O)[C@H](CCc2ccc(C(F)(F)F)c(Cl)c2)NC(=O)CN(C)C(=O)[C@H](Cc2ccc(C)cc2)N(CCCOC)C(=O)[C@@H]2CCN2C(=O)[C@H](C)N(C)C1=O [PP0093] ([NMeL]I[NMeA][Aze][X28][Sar][hPhe(3-Cl-4-CF3)]P[Ac5c][NMeGly(cPent)][NMeD]-Morpholide; lactam N-11) ? 10.12

====

Each item that follows carries a reported pKd.
Biological target: GDP-bound KRAS wild-type protein (Homo sapiens)
Assay: Binding to KRAS by surface plasmon resonance (SPR), Single Cycle Kinetics
Conditions: SPR Single Cycle Kinetics, GDP-bound KRAS wild-type protein, 1:1 binding model; read-out: KRAS KD
Where a SMILES comes first, the peptide text is derived from it. Bridges are numbered along the chain shown (N, C = ends). [ ]: non-standard residue; d: D form. The star is where a group is joined. hPhe(3-Cl-4-CF3) = N[C@@H](CCc1ccc(C(F)(F)F)c(Cl)c1)C(=O)O; NPrPhe(4-CF3) = CCCN[C@@H](Cc1ccc(C(F)(F)F)cc1)C(=O)O; NEtPhe(4-Me) = CCN[C@@H](Cc1ccc(C)cc1)C(=O)O; NMePhe(4-F) = CN[C@@H](Cc1ccc(F)cc1)C(=O)O; NMeGly(cPent) = CN[C@H](C(=O)O)C1CCCC1; Hyp = O=C(O)[C@@H]1C[C@@H](O)CN1; Gly(cBu) = N[C@H](C(=O)O)C1CCC1; NMeD = CN[C@@H](CC(=O)O)C(=O)O; NMeL = CN[C@@H](CC(C)C)C(=O)O; Morpholide = C1CN(*)CCO1; NMeA = CN[C@@H](C)C(=O)O; Ac5c = NC1(C(=O)O)CCCC1; Aze = O=C(O)[C@@H]1CCN1; NEtG = CCNCC(=O)O; Sar = CNCC(=O)O
Give only the number. pKd is defined as minus log10 of concentration in molar units.

Which pKd value belongs to CC[C@H](C)[C@@H]1NC(=O)[C@H](CC(C)C)N(C)C(=O)C[C@@H](C(=O)N2CCOCC2)N(C)C(=O)[C@H](C2CCCC2)N(C)C(=O)C2(CCCC2)NC(=O)[C@@H]2CCCN2C(=O)[C@H](CCc2ccc(C(F)(F)F)c(Cl)c2)NC(=O)CN(C)C(=O)[C@H](Cc2ccc(F)cc2)N(C)C(=O)[C@@H]2CCN2C(=O)[C@H](C)N(C)C1=O [PP0217] ([NMeL]I[NMeA][Aze][NMePhe(4-F)][Sar][hPhe(3-Cl-4-CF3)]P[Ac5c][NMeGly(cPent)][NMeD]-Morpholide; lactam N-11) ? 9.74

Which pKd value belongs to CCO[C@@H]1C[C@H]2C(=O)NC3(CCCC3)C(=O)N(C)[C@@H](C3CCCC3)C(=O)N(C)[C@H](C(=O)N3CCOCC3)CC(=O)N(C)[C@@H](CC(C)C)C(=O)N[C@@H]([C@@H](C)CC)C(=O)N(C)CC(=O)N(C)CC(=O)N(CC)[C@@H](Cc3ccc(C)cc3)C(=O)N(C)CC(=O)N[C@@H](CCc3ccc(C(F)(F)F)c(Cl)c3)C(=O)N2C1 [PP0042] ([NMeL]I[Sar][Sar][NEtPhe(4-Me)][Sar][hPhe(3-Cl-4-CF3)][Hyp](Et)[Ac5c][NMeGly(cPent)][NMeD]-Morpholide; lactam N-11) ? 9.92

Which pKd value belongs to CC[C@H](C)[C@@H]1NC(=O)[C@H](CC(C)C)N(C)C(=O)C[C@@H](C(=O)N2CCOCC2)N(C)C(=O)[C@H](C2CCCC2)N(C)C(=O)C2(CCCC2)NC(=O)[C@@H]2CCCN2C(=O)[C@H](CCc2cc(F)c(C(F)(F)F)c(F)c2)NC(=O)CN(C)C(=O)[C@H](Cc2ccc(C(F)(F)F)cc2)N2CCCC[C@@H](C2=O)N(C)C(=O)CN(C)C1=O ? 10.28

Which pKd value belongs to CCCN1C(=O)CN(C)C(=O)CN(CC)C(=O)[C@H](C2CCC2)NC(=O)[C@H](CC(C)C)N(C)C(=O)C[C@@H](C(=O)N2CCOCC2)N(C)C(=O)[C@H](C2CCCC2)N(C)C(=O)C2(CCCC2)NC(=O)[C@@H]2CCCN2C(=O)[C@H](CCc2ccc(C(F)(F)F)c(Cl)c2)NC(=O)CN(C)C(=O)[C@@H]1Cc1ccc(C(F)(F)F)cc1 [PP0292] ([NMeL][Gly(cBu)][NEtG][Sar][NPrPhe(4-CF3)][Sar][hPhe(3-Cl-4-CF3)]P[Ac5c][NMeGly(cPent)][NMeD]-Morpholide; lactam N-11) ? 9.27

Which pKd value belongs to CCOC[C@H]1C(=O)N[C@@H]([C@@H](C)CC)C(=O)N(C2CC2)CC(=O)N(C)[C@@H]2C/C=C\CCN(C2=O)[C@@H](Cc2ccc(C)cc2)C(=O)N(C)CC(=O)N[C@@H](CCc2ccc(C(F)(F)F)c(OC)c2)C(=O)N2C[C@H](OCC)C[C@@H]2C(=O)NC2(CC(C)(C)C2)C(=O)N(C)[C@H](CC2CCC2)C(=O)N(C)[C@H](C(=O)N(C)C)CC(=O)N1C (stereo in doubt) ? 8.32
